Test system: H4βAPP695 wt cells
TEST SUMMARY: Cytotoxicity by total cell protein content (BCA) of H4βAPP695 wt cells
APPLIED CONDITIONS: 30 μM; cytotoxicity
Cell protein (% decrease) 30 μM Mean values by entry
RECORDED ENDPOINT: Cell protein (% decrease) 30 μM Mean (%)

In [3]: df
Out[3]:
                                    compound  number
 0  O=C(NCCS(=O)(=O)Cc1cccc(O)c1)c1c(Cl)cccc1Cl [Compound 31]     4.4
 1  O=C(NCCSCc1cccc(F)c1)c1c(Cl)cccc1Cl [Compound 47]     3.7
 2  O=C(NCCSCc1ccc(O)cc1)c1c(Cl)cccc1Cl [Compound 28]     4.4
 3  COc1cccc(CSCCNC(=O)c2c(Cl)cccc2Cl)c1 [Compound 27]    13.2
 4  O=Cc1cccc(CSCCNC(=O)c2c(Cl)cccc2Cl)c1 [Compound 49]    −2.1
 5  COc1cc(CSCCNC(=O)c2c(Cl)cccc2Cl)cc(OC)c1 [Compound 60]    −8.7
 6  COc1cccc(CSCCNC(=O)c2c(OC)cccc2OC)c1 [Compound 34]     3.9
 7  NC(=O)c1c(Cl)cccc1CSCC(=O)c1c(Cl)cccc1Cl [Compound 61]    −5.6
 8  O=C(NCCSCc1cc(O)cc(O)c1)c1c(Cl)cccc1Cl [Compound 59]    −0.7
 9  O=C(NCC[S+]([O-])Cc1cccc(O)c1)c1c(Cl)cccc1Cl (stereo not drawn) [Compound 33]     4.4
10  O=C(NCCSCc1cccc(O)c1O)c1c(Cl)cccc1Cl [Compound 58]      14
11  O=C(NCCOCc1cccc(Cl)c1)c1c(Cl)cccc1Cl [Compound 72]     4.2
12  O=C(NC1CC1)c1cccc(CSCCNC(=O)c2c(Cl)cccc2Cl)c1 [Compound 68]      −1
13  O=C(NCCSCc1cccc(O)c1)c1c(O)cccc1O [Compound 35]    14.3
14  O=C(NCCSCc1cccc(Cl)c1)c1c(C(F)(F)F)cccc1C(F)(F)F [Compound 74]    −0.4
15  COc1cc(Cl)cc(CSCCNC(=O)c2c(Cl)cccc2Cl)c1 [Compound 73]     0.4
16  O=C(NCCSCc1cccc(Cl)c1)c1c(Br)cccc1Br [Compound 54]    20.8
17  Cc1cccc(C)c1C(=O)NCCSCc1cccc(Cl)c1 [Compound 75]    −9.4
18  CCOC(=O)c1cccc(CSCCNC(=O)c2c(Cl)cccc2Cl)c1 [Compound 43]     5.4
19  N#Cc1cccc(CSCCNC(=O)c2c(Cl)cccc2Cl)c1 [Compound 38]     4.3
20  O=C(NCCSCc1cccc(F)c1)c1c(F)cccc1F [Compound 46]     1.8
21  O=C(NCCSCc1cccc([N+](=O)[O-])c1)c1c(Cl)cccc1Cl [Compound 40]    24.6
22  O=C(NCCSCc1cccc(O)c1)c1c(Cl)cccc1Cl [Compound 29]     6.6
23  COc1cccc(OC)c1C(=O)NCCSCc1cccc(Cl)c1 [Compound 36]    −0.6
24  O=C(O)c1cccc(CSCCNC(=O)c2c(Cl)cccc2Cl)c1 [Compound 44]     3.2
25  O=C(NCCSCc1cccc(NC(=O)C2CC2)c1)c1c(Cl)cccc1Cl [Compound 69]     3.2
26  NC(=O)c1cccc(CSCCNC(=O)c2c(Cl)cccc2Cl)c1 [Compound 45]    −8.6
27  O=C(NCCSCc1cccc(Br)c1)c1c(Cl)cccc1Cl [Compound 51]    38.6
28  O=C(NCCSCc1cccc(Cl)c1)c1ccccc1 [Compound 63]    −4.5
29  COc1cccc(C[S+]([O-])CCNC(=O)c2c(Cl)cccc2Cl)c1 (stereo not drawn) [Compound 32]     9.2
30  COc1ccc(CSCCNC(=O)c2c(Cl)cccc2Cl)cc1 [Compound 26]    12.7
31  O=C(NCCSCc1ccc(Cl)cc1)c1c(Cl)cccc1Cl [Compound 77]       3
32  COc1cccc(CS(=O)(=O)CCNC(=O)c2c(Cl)cccc2Cl)c1 [Compound 30]     8.9
33  O=C(NCCSCc1cccc(Br)c1)c1c(Br)cccc1Br [Compound 55]    23.9
34  O=C(NCCSCc1ccccc1)c1c(Cl)cccc1Cl [Compound 65]    −0.7
35  O=C(NCCSCc1ccccc1)c1ccccc1 [Compound 64, N-(2-Benzylsulfanyl-ethyl)-benzamide]    −4.1
36  O=C(NCCS(=O)(=O)Cc1cccc(Cl)c1)c1c(Cl)cccc1Cl [Compound 66]    −3.8
37  COc1cccc(CSCCNC(=O)c2c(Cl)cccc2Cl)c1OC [Compound 52]     8.7
38  O=C(NCCSCc1cccc(I)c1)c1c(Cl)cccc1Cl [Compound 53]      19

Data credit: patent US20130158112A1
